test: self-splicing fitness, log relative to wild type (ln ratio); higher = more splicing; Tetrahymena group I intron in knt gene, E. coli kanamycin selection, DiMSum; sequences stand for … in CUCUCU…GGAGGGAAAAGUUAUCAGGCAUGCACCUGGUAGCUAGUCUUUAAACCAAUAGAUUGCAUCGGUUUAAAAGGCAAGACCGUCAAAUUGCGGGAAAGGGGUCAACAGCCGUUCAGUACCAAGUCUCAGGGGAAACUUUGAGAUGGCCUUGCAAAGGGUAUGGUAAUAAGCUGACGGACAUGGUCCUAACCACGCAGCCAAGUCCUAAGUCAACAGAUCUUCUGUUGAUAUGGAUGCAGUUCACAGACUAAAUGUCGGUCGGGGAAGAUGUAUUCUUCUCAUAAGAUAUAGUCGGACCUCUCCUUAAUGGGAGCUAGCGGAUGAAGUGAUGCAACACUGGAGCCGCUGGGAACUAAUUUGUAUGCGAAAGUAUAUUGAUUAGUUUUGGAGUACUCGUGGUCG; details: 30 °C;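 also: selection with 25 µg/mL kanamycin versus none on LB agar overnight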
Rule: self-splicing fitness (ln) under -3 gives criterion not met, otherwise criterion met.

BIOPOLYMER SEQUENCE: CUGGAGCAAUAUUACGGAAA
CLASS LABEL: criterion met

BIOPOLYMER SEQUENCE: AGGAAGCAAUAUUACGCCAA
CLASS LABEL: criterion met

BIOPOLYMER SEQUENCE: UUUCAGCAAUAUUACGCGAC
CLASS LABEL: criterion met

BIOPOLYMER SEQUENCE: GCCUAGCAAUAUUACGGACG
CLASS LABEL: criterion met

BIOPOLYMER SEQUENCE: GAGAAGCAAUAUUACGUGCG
CLASS LABEL: criterion met

BIOPOLYMER SEQUENCE: CAACAGCAAUAUUACGAAGG
CLASS LABEL: criterion met

BIOPOLYMER SEQUENCE: AUGGAGCAAUAUUACGAUGC
CLASS LABEL: criterion met

BIOPOLYMER SEQUENCE: UAUUAGCAAUAUUACGGAAU
CLASS LABEL: criterion not met

BIOPOLYMER SEQUENCE: ACCGAGCAAUAUUACGCAAG
CLASS LABEL: criterion not met

BIOPOLYMER SEQUENCE: GUUAAGCAAUAUUACGUCAU
CLASS LABEL: criterion met

BIOPOLYMER SEQUENCE: UAUUAGCAAUAUUACGUGGG
CLASS LABEL: criterion not met

BIOPOLYMER SEQUENCE: GAGUAGCAAUAUUACGCCCG
CLASS LABEL: criterion met

BIOPOLYMER SEQUENCE: UCGUAGCAAUAUUACGUAAA
CLASS LABEL: criterion met

BIOPOLYMER SEQUENCE: GUACAGCAAUAUUACGAUCA
CLASS LABEL: criterion met

BIOPOLYMER SEQUENCE: CCCUAGCAAUAUUACGUGCC
CLASS LABEL: criterion not met

BIOPOLYMER SEQUENCE: CAACAGCAAUAUUACGUUAU
CLASS LABEL: criterion not met

BIOPOLYMER SEQUENCE: UGCUAGCAAUAUUACGGUAU
CLASS LABEL: criterion met

BIOPOLYMER SEQUENCE: GAAAAGCAAUAUUACGAAAG
CLASS LABEL: criterion not met

BIOPOLYMER SEQUENCE: UAGUAGCAAUAUUACGUGCA
CLASS LABEL: criterion met

BIOPOLYMER SEQUENCE: CCUCAGCAAUAUUACGGUUG
CLASS LABEL: criterion met

BIOPOLYMER SEQUENCE: UCCCAGCAAUAUUACGAUUU
CLASS LABEL: criterion not met

BIOPOLYMER SEQUENCE: CCGCAGCAAUAUUACGUUGG
CLASS LABEL: criterion not met

BIOPOLYMER SEQUENCE: GUUCAGCAAUAUUACGAAAC
CLASS LABEL: criterion met

BIOPOLYMER SEQUENCE: CCAUAGCAAUAUUACGUGAC
CLASS LABEL: criterion met

====

test: self-splicing fitness, log relative to wild type (ln ratio); higher = more splicing; Tetrahymena group I intron in knt gene, E. coli kanamycin selection, DiMSum; sequences stand for … in CUCUCU…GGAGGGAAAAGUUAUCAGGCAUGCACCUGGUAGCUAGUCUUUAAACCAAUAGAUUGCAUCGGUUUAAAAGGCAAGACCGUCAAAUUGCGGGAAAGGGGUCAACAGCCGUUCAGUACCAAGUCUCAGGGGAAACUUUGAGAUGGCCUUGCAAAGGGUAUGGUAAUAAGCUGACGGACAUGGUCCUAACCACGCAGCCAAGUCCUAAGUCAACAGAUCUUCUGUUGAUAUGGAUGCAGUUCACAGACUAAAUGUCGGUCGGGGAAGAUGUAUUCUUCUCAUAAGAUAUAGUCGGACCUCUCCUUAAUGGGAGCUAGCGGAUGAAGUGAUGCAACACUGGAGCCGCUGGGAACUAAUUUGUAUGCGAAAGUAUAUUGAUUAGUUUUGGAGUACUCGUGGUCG; conditions: 30 °C
self-splicing fitness (ln) values by entry

BIOPOLYMER SEQUENCE: AAUUAGCAAUAUUACGGCAU
self-splicing fitness (ln): 0.0829
//
BIOPOLYMER SEQUENCE: CGCGAGCAAUAUUACGGUUG
self-splicing fitness (ln): -1.73
//
BIOPOLYMER SEQUENCE: GCUAAGCAAUAUUACGGGUG
self-splicing fitness (ln): -1.24
//
BIOPOLYMER SEQUENCE: GUCGAGCAAUAUUACGCGCU
self-splicing fitness (ln): -2.6
//
BIOPOLYMER SEQUENCE: CCGUAGCAAUAUUACGGUGU
self-splicing fitness (ln): -3.66
//
BIOPOLYMER SEQUENCE: GUCGAGCAAUAUUACGAAUA
self-splicing fitness (ln): -2.42
//
BIOPOLYMER SEQUENCE: CGCCAGCAAUAUUACGUGCA
self-splicing fitness (ln): -0.897
//
BIOPOLYMER SEQUENCE: GAGUAGCAAUAUUACGAGUC
self-splicing fitness (ln): -3.59
//
BIOPOLYMER SEQUENCE: GAGGAGCAAUAUUACGUGGG
self-splicing fitness (ln): -3.08
//
BIOPOLYMER SEQUENCE: CGUUAGCAAUAUUACGCCGG
self-splicing fitness (ln): -0.8
//
BIOPOLYMER SEQUENCE: AUAGAGCAAUAUUACGGGAA
self-splicing fitness (ln): -3.43
//
BIOPOLYMER SEQUENCE: CGAUAGCAAUAUUACGGUAG
self-splicing fitness (ln): -1.41
//
BIOPOLYMER SEQUENCE: CGACAGCAAUAUUACGUUUC
self-splicing fitness (ln): -3.98
//
BIOPOLYMER SEQUENCE: UGCAAGCAAUAUUACGUCUU
self-splicing fitness (ln): -4.52
//
BIOPOLYMER SEQUENCE: AGACAGCAAUAUUACGGCAU
self-splicing fitness (ln): -0.544
//
BIOPOLYMER SEQUENCE: GUCAAGCAAUAUUACGGCUA
self-splicing fitness (ln): -1.28
//
BIOPOLYMER SEQUENCE: ACAGAGCAAUAUUACGUUCG
self-splicing fitness (ln): -2.06
//
BIOPOLYMER SEQUENCE: GAGAAGCAAUAUUACGGCGC
self-splicing fitness (ln): 0.341
//
BIOPOLYMER SEQUENCE: AACCAGCAAUAUUACGUUAU
self-splicing fitness (ln): -2.18
//
BIOPOLYMER SEQUENCE: GCCGAGCAAUAUUACGGGCA
self-splicing fitness (ln): -2.24
//
BIOPOLYMER SEQUENCE: CAGAAGCAAUAUUACGCCUA
self-splicing fitness (ln): -0.835
//
BIOPOLYMER SEQUENCE: CUGAAGCAAUAUUACGCAGA
self-splicing fitness (ln): -3.67
//
BIOPOLYMER SEQUENCE: AUUUAGCAAUAUUACGAUGA
self-splicing fitness (ln): -1.8
//
BIOPOLYMER SEQUENCE: UGGGAGCAAUAUUACGCUUC
self-splicing fitness (ln): -1.91
//
BIOPOLYMER SEQUENCE: UGAGAGCAAUAUUACGCACG
self-splicing fitness (ln): -2.77
//
BIOPOLYMER SEQUENCE: CAGCAGCAAUAUUACGGUAG
self-splicing fitness (ln): -0.155
//
BIOPOLYMER SEQUENCE: CCACAGCAAUAUUACGAAAC
self-splicing fitness (ln): -2.27
//
BIOPOLYMER SEQUENCE: CUGCAGCAAUAUUACGUCGU
self-splicing fitness (ln): -4.05
//
BIOPOLYMER SEQUENCE: UCACAGCAAUAUUACGAGAU
self-splicing fitness (ln): -4.39
//
BIOPOLYMER SEQUENCE: CACCAGCAAUAUUACGGCUA
self-splicing fitness (ln): -1.1

Hello, the source for this data is the supplement of paper PMC7877785, in case you need it.
